FYI, the data here is from paper PMC10397247.

Task for the reader: assign each of the following binders its reported interaction score.
# TEST_SYSTEM: T1, 4H2859-bA
# T1 chain: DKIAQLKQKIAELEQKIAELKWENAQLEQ
# EXPERIMENT_NOTES: two-hybrid library CCNG1;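 further: natural log of median RNA to DNA barcode read ratio; higher means stronger binding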
# answer = number (no unit)

Qu. Record request: interaction score value, item DKIAQLEQENAELKQEIAELKWKIAQLEQ [4H2253-bA]
Ans. -0.839

Qu. Record request: interaction score value, item DKIAQLKQEIAELEQENAELKWEIAQLEQ [4H2585-bA]
Ans. -0.28

Qu. Record request: interaction score value, item DKIAQLEQKNAELKQENAELEWKIAQLKQ [4H2518-bA]
Ans. -0.00645

Qu. Record request: interaction score value, item DKIAQLEQENAELEQKNAELKWEIAQLEQ [4H2233-bA]
Ans. -0.945

Qu. Record request: interaction score value, item DEIAQLEQKIAELEQEIAELEWKNAQLKQ [4H264-bA]
Ans. 1.6

Qu. Record request: interaction score value, item DKIAQLEQEIAELKQKNAELEWEIAQLKQ [4H2162-bA]
Ans. 0.326

Qu. Record request: interaction score value, item DKIAQLEQEIAELKQENAELKWKNAQLEQ [4H2143-bA]
Ans. 0.213

Qu. Record request: interaction score value, item DKIAQLEQKNAELEQEIAELKWENAQLKQ [4H2444-bA]
Ans. -0.0526

Qu. Record request: interaction score value, item DEIAQLEQENAELKQKIAELKWENAQLEQ [4H235-bA]
Ans. -0.319

Qu. Record request: interaction score value, item DKIAQLKQENAELKQEIAELEWKNAQLKQ [4H2760-bA]
Ans. 0.0768

Qu. Record request: interaction score value, item DKIAQLKQKIAELEQKIAELKWENAQLEQ [4H2859-bA]
Ans. 0.951

Qu. Record request: interaction score value, item DEIAQLEQENAELEQKIAELEWKIAQLKQ [4H166-bA]
Ans. 1.07
